Overview of recorded protein stability index for various variants
B1: STK38L (parent)
chain: NWKETLVFPPEVPISEKAKDLILR

Variants of: B1
Assay: protein stability index of a GFP-peptide fusion (GPS, HEK-293T) (PSI 1-6); higher = more stable;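 also: lentivirally expressed fusions sorted by FACS into six bins by GFP to DsRed ratio, PSI derived from sequencing read proportions per bin multiplied by bin number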
Settings: c terminus: a fixed tail appended
observedProperty: protein stability index

1) V7M :: 2.94
2) A18N :: 3.38
3) K17L :: 2.15
4) T5W :: 2.05
5) T5K :: 2.48
6) L21A :: 3.35
7) E4F :: 2.29
8) L6V :: 3.15
9) R24F :: 2.13
10) L23V :: 3.27
11) K3G :: 3.17
12) L6F :: 3.31
13) W2V :: 3.59
14) E16C :: 2.7
15) E4Q :: 2.62
16) S15R :: 2.79
17) E4G :: 2.31
18) L6N :: 3.55
19) K19Q :: 2.86
20) L23K :: 4.24
21) P9S :: 3.06
22) S15C :: 3.67
